Recorded measurements of MEASURED FLUORESCENCE, RFU +5 min, one per entry
# Test system: Geobacillus stearothermophilus spores (ATCC 7953)
# test description: Fluorescence measurements using enzyme substrates and Geobacillus stearothermophilus spores in LB broth
# Assay type: cell-based
# condition label: pH 9 LB broth, substrate 0.3 mg/mL, 5×10^6 spores, 60° C., +5 min
Give the quantity in RFU, number only.

A selection of reference data follows.
Cc1cc(=O)oc2cc(O[C@H]3O[C@H](CO)[C@@H](O)[C@H](O)[C@H]3O)cc(F)c12 :: 3002
Cc1cc(=O)oc2c(F)c(O[C@H]3O[C@H](CO)[C@@H](O)[C@H](O)[C@H]3O)c(F)cc12 :: 12620
Cc1cc(=O)oc2cc(O[C@H]3O[C@H](CO)[C@@H](O)[C@H](O)[C@H]3O)ccc12 :: 3444

// switching to the query compound
Lookup: Consider the compound Cc1cc(=O)oc2cc(O[C@H]3O[C@H](CO)[C@@H](O)[C@H](O)[C@H]3O)c(F)cc12 and give its recorded MEASURED FLUORESCENCE, RFU +5 min.
Found: 8863
